Source: ChEMBL document CHEMBL1201862

So I've got a bunch of molecules here, and I need their GI50 values.
Tested on: A498
Assay: NCI tumour cell line growth inhibition, 48 h
Active and inactive are the calls of the source. No stated cut-off is given here; in the data, active = GI50 up to about 1.1 µM and inactive = higher.

Item C=C1C/C(=C/C)C(=O)O[C@@H]2CCN3CC=C(COC(=O)[C@]1(C)O)[C@H]23 has what recorded GI50? > 100 µM (inactive)

Item O=C(O)CC1(C(=O)O)CCCCC1 has what recorded GI50? > 100 µM (inactive)

Item Cc1ccc(C2=Nn3c(nc4sc(-c5ccccc5)cc4c3=O)SC2)cc1 has what recorded GI50? > 100 µM (inactive)

Item C[C@H]1[C@H](C)CC[C@]2(C(=O)OC3OC(CO)C(O)C(O)C3O)CC[C@]3(C)C(=CC[C@@H]4[C@@]5(C)C[C@@H](O)[C@@H]6OC(=O)c7cc(O)c(O)c(O)c7-c7c(cc(O)c(O)c7O)C(=O)OC[C@]6(CO)[C@@H]5CC[C@]43C)[C@H]12 (some centres not stated) has what recorded GI50? > 100 µM (inactive)

Item CC(=O)OCC1OC(n2c(=O)n(-c3ccccc3)c(=O)c3cc(Br)cc(Br)c32)C(OC(C)=O)C(OC(C)=O)C1OC(C)=O (configuration not stated) has what recorded GI50? > 100 µM (inactive)

Item COC(=O)C1C(=O)N(C)C(=O)N2CCCC12 (configuration not stated) has what recorded GI50? > 100 µM (inactive)

Item COc1ccc(OC(C(=O)O)C(C)C)c2c1CCCC2=O (configuration not stated) has what recorded GI50? > 100 µM (inactive)

Item CC1C(=O)O[B-]2(c3ccccc3)Oc3ccccc3C=[N+]12 (configuration not stated) has what recorded GI50? > 100 µM (inactive)

Item COC(=O)C[C@H]1[C@]2(C)C3=C(C)[C@H](c4ccoc4)CC3O[C@@H]2[C@@H]2OC(=O)[C@]3(C)CCC(=O)[C@@]1(C)[C@@H]23 (some centres not stated) has what recorded GI50? > 100 µM (inactive)

Item OC(CCN1CCN(CCOC(c2ccccc2)c2ccccc2)CC1)c1ccccc1 (configuration not stated) has what recorded GI50? 2.4 µM (inactive)

Item COc1ccc2c(-c3csc(-c4c[nH]c5ccc(Br)cc45)n3)c[nH]c2c1 has what recorded GI50? 89.3 µM (inactive)

Item Oc1nc2cc(Cl)ccc2nc1/C(=N\Nc1ccccc1)C(O)c1ccc2c(c1)OCO2 (configuration not stated) has what recorded GI50? > 100 µM (inactive)

Item CC(=O)OCC1OC(On2ccccc2=S)C(OC(C)=O)C(OC(C)=O)C1OC(C)=O (configuration not stated) has what recorded GI50? > 100 µM (inactive)

Item Cc1ccc(NC=O)c(-c2c(N)[nH]c(=S)[nH]c2=O)c1 has what recorded GI50? > 100 µM (inactive)

Item CCCCCCCCC/C=C1/CC(CO)(COC(=O)CC(C(C)C)C(C)C)OC1=O (configuration not stated) has what recorded GI50? 3.14 µM (inactive)

Item CSC1=NS(=O)(=O)c2cc(C(=O)NN(C)C(=O)c3cc4c(cc3Cl)SC(SC)=NS4(=O)=O)c(Cl)cc2S1 has what recorded GI50? > 10 µM (inactive)

Item CSc1ccc(N2C(=O)C3c4[nH]c5ccccc5c4C4CCC(C(C)(C)C)CC4C3C2=O)cc1 (configuration not stated) has what recorded GI50? 17.8 µM (inactive)
